Origin of the recorded values: BigSolDB 2.1

# experimental.parameters: in o-xylene, 299.45 K

>  <structure.as.smiles>
COc1cc(Cl)c(OC)cc1N

>  <solubility (mole fraction)>
0.0158

$$$$

----------
# experimental.parameters: in o-xylene, 277.75 K

>  <structure.as.smiles>
COc1cc([N+](=O)[O-])c(OC)cc1Cl

>  <solubility (mole fraction)>
0.00864

$$$$

----------
# experimental.parameters: in p-xylene, 334.25 K
measurement.kind: solubility (mole fraction)

>  <structure.as.smiles>
COc1cc(Cl)c(OC)cc1N

>  <measurement.kind>
solubility (mole fraction)

>  <result.number>
0.0651

$$$$

----------
# experimental.parameters: in o-xylene, 327.55 K
measurement.kind: solubility (mole fraction)

>  <structure.as.smiles>
COc1cc([N+](=O)[O-])c(OC)cc1Cl

>  <measurement.kind>
solubility (mole fraction)

>  <result.number>
0.0544

$$$$

----------
# experimental.parameters: in m-xylene, 318.55 K
measurement.kind: solubility (mole fraction)

>  <structure.as.smiles>
COc1cc([N+](=O)[O-])c(OC)cc1Cl

>  <result>
0.0341

$$$$

----------
# experimental.parameters: in toluene, 327.75 K
measurement.kind: solubility (mole fraction)

>  <structure.as.smiles>
COc1cc([N+](=O)[O-])c(OC)cc1Cl

>  <result.number>
0.061

$$$$

----------
# experimental.parameters: in toluene, 319.45 K
measurement.kind: solubility (mole fraction)

>  <structure.as.smiles>
COc1cc([N+](=O)[O-])c(OC)cc1Cl

>  <result>
0.045

$$$$

----------
# experimental.parameters: in ethanol, 313.95 K
measurement.kind: solubility (mole fraction)

>  <structure.as.smiles>
COc1cc(Cl)c(OC)cc1N

>  <measurement.kind>
solubility (mole fraction)

>  <result.number>
0.0137

$$$$

----------
# experimental.parameters: in m-xylene, 286.05 K

>  <structure.as.smiles>
COc1cc(Cl)c(OC)cc1N

>  <solubility (mole fraction)>
0.00739

$$$$

----------
# experimental.parameters: in methanol, 289.45 K
measurement.kind: solubility (mole fraction)

>  <structure.as.smiles>
COc1cc(Cl)c(OC)cc1N

>  <measurement.kind>
solubility (mole fraction)

>  <result.number>
0.00465

$$$$

----------
# experimental.parameters: in ethanol, 282.65 K
measurement.kind: solubility (mole fraction)

>  <structure.as.smiles>
COc1cc(Cl)c(OC)cc1N

>  <result.number>
0.00327

$$$$

----------
# experimental.parameters: in toluene, 301.85 K

>  <structure.as.smiles>
COc1cc([N+](=O)[O-])c(OC)cc1Cl

>  <solubility (mole fraction)>
0.0241

$$$$

----------
# experimental.parameters: in methanol, 285.85 K

>  <structure.as.smiles>
COc1cc(Cl)c(OC)cc1N

>  <solubility (mole fraction)>
0.00399

$$$$

----------
# experimental.parameters: in m-xylene, 281.85 K

>  <structure.as.smiles>
COc1cc(Cl)c(OC)cc1N

>  <solubility (mole fraction)>
0.00615

$$$$

----------
# experimental.parameters: in m-xylene, 316.95 K

>  <structure.as.smiles>
COc1cc(Cl)c(OC)cc1N

>  <solubility (mole fraction)>
0.0318

$$$$

----------
# experimental.parameters: in methanol, 292.75 K

>  <structure.as.smiles>
COc1cc(Cl)c(OC)cc1N

>  <solubility (mole fraction)>
0.0054

$$$$
